These measurements were taken from paper PMC5427923.

Assay: 15a plasma levels by LC-MS after a single intraperitoneal dose
Format: in vivo
Details: apoE−/−, mouse, intraperitoneal, 5 mg/kg, slope of the linear regression of the pharmacokinetic data, read-out: k el (elimination rate constant) (converted)
Method: To measure plasma concentrations of 15a over time, Western type diet fed mice were injected with 5 mg/kg 15a, after which blood samples were taken at fixed time points (1, 2, 6 and 24 hours after injection). […] The final dose of 5 mg/kg/day was based on a pilot study in which two different doses (1.5 and 5 mg/kg/day) were tested using leucocyte migration towards the peritoneal cavity as a read-out. […] Blood plasma from mice was analyzed by LC-MS to determine 15a plasma levels. […]
assay.readout: k el (s⁻¹)
Give bare numbers, in s⁻¹.

In one line, give reported k el of the entry CC(C)[C@]1(C(=O)N2CCc3ccc(C(F)(F)F)cc3C2)CC[C@@H](N[C@@H]2CCc3cc(Br)ccc32)C1 [15a] . 1.8e-05

====

assay: 15a plasma levels by LC-MS after a single intraperitoneal dose; assay type: in vivo; details: apoE−/−, mouse, ip, single intraperitoneal dose of 5 mg/kg, mice, range of individual mice, read-out: plasma levels 24 h after administration
assay.readout: concentration at 24 h

Assign concentration at 24 h to the following record: CC(C)[C@]1(C(=O)N2CCc3ccc(C(F)(F)F)cc3C2)CC[C@@H](N[C@@H]2CCc3cc(Br)ccc32)C1 [15a] 32 to 331 ng/mL

====

target: murine CCR2 (mCCR2) (Mus musculus)
Sequence (P51683 whole entry): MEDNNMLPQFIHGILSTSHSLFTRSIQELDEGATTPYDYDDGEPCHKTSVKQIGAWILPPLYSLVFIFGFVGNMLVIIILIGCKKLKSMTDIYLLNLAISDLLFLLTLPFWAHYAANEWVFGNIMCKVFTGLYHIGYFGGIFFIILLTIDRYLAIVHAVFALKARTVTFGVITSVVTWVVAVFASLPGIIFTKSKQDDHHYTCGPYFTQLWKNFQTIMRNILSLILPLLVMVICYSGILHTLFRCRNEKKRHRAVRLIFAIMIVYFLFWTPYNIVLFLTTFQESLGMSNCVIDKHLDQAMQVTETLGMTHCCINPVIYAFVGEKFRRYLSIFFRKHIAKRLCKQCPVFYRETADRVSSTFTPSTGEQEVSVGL
assay.readout: pKd
Give bare numbers, as −log10 of the molar value.

Give the value of pKd reported for the following: CC(C)[C@]1(C(=O)N2CCc3ccc(C(F)(F)F)cc3C2)CC[C@@H](N[C@@H]2CCc3cc(Br)ccc32)C1 [15a] 8.13

====

assay: 15a plasma levels by LC-MS after a single intraperitoneal dose; type: in vivo; details: apoE−/−, mouse, ip, single intraperitoneal dose of 5 mg/kg, mice, read-out: elimination half-life (converted)
assay.readout: half-life (h)
One number for each entry, in h.

Note down half-life recorded for CC(C)[C@]1(C(=O)N2CCc3ccc(C(F)(F)F)cc3C2)CC[C@@H](N[C@@H]2CCc3cc(Br)ccc32)C1 [15a] 10.7
